assay: NCI Yeast Anticancer Drug Screen. Data for the mlh1 rad18 strain (AID 175); details: S. cerevisiae mlh1 rad18 strain growth inhibition; at 50.0 µM (retest, dose inferred, filed as 5.0); active compounds read high
This is part of a sample that, as a whole, favours compounds with a hit. Of some 79,000 tested, about 15% had one in any assay.
Classification field: 1 = growth inhibition at or over 90%; 0 = growth inhibition under 90%.

C=C(c1ccccc1)[P+](c1ccccc1)(c1ccccc1)c1ccccc1 : 1
CNC(=O)OCc1c(COC(=O)NC)c(-c2ccc(OC)cc2)n2c1CCC2 : 0
CC(=O)NC1CCCCC1c1ccc(C2CCCCC2NC(C)=O)cc1 (configuration not stated) : 0

Qu. Form field: growth inhibition at least 90%? Entry: COc1ccnc(-c2cc(OC)cc(/C(N)=N/O)n2)c1
Ans. 0

Qu. Also, Clc1ccc(Cc2nc3ccccc3s2)c(Cl)c1 please.
Ans. 1
